subject_of_test: T1, human LAIR1 extracellular domain (ECD) protein with 6 HIS tag at the C-terminus (human, UniProt Q6GTX8 22-165)
T1 construct: Produced recombinantly in HEK293 cells; the whole entry is named here; also called LAIR1 ECD; LAIR1-ECD
T1 chain: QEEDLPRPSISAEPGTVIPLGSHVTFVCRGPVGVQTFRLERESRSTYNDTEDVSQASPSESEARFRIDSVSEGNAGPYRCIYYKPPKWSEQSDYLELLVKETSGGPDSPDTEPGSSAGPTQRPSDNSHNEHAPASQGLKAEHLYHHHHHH
procedure_summary: ELISA, LAIR1 ECD coated
Procedure: The inventors then used a concentration titration (0-10 μg/ml) by ELISA to determine the LAIR1 monoclonal antibody (mAbs) binding to human LAIR1 ECD. […] For FIGS. 2-39, X axis indicates the antibody concentrations and Y-axis is binding signals, measured as OD (450 nm). […] Serial diluted (3-fold) LAIR1 mAb was added to the coated/blocked plates and detected using goat anti-rabbit F(ab′)2 conjugated HRP as secondary antibody. […]
Listing: EC50 (read off the curve) of selected binders
reported_metric: EC50 (read off the curve)

binder="LA-145 (antibody, V domains shown, Rabbit monoclonal IgG) VH: SSSVEESGGRLVTPGTPLTLTCTVSGFSLSSYVMGWVRQAPGKGLEWIGTISIRSNTYYASWAKGRFTISKTSTTVDLKITSPITEDTATYFCARGAGNVYYSDYYFSLWGPGTLVTISS VL: ELVMTQPPASVSAAVGGTVTINCQASQNIYSNLAWYQQRPGQPPKLLIYKASTLASGVPSRFKGSGSGTDYTLTITDLECADAATYYCQTYYNMMDDGAAFGGGTEVEIK" result="~10 ng/mL"
binder="LA-219 (antibody, V domains shown, Rabbit monoclonal IgG; Called a potential antagonist antibody) VH: EQSVESGGGLITPGGTLTLTCTASGFTVTRYYMNWVRQAPGKGLEWIGYIYASSKTYYANWAKGRFTISKTSTTVDLKMTSLTAEDTGTYFCARGGVGNSGLNLDLWGPGTLVTISS VL: ELDMTQTPASVSEPVGGTVTIKCQASQSIGSWLAWYQQKPGQPPKLLIYQASRLASGVSSRFGGSGSGTEFTLTISDLECADAATYYCQQAEYSGDVENTFGGGTEVVVK" result="~8 ng/mL"
binder="LA-222 (antibody, V domains shown, Rabbit monoclonal IgG) VH: EQSVEESGGDLVKPGASLTLTCTASGFSFTYWICWVRQAPGKGLEWIACIYAGSSGDTYYASWAKGRFTISKTSSTTVTLQMTSLTAADTATYFCARSPDYVAWGYDLWGPGTRVTVSS VL: ELVLTQTPASVSAAVGGTVTINCQASQSIGTNLVWYQQKPGQPPKLLFYYASTLASGVPSRFRGSRSGTEYTLTISDLECADAATYYCQCIYYGGNYGHTFGGGTEVVVK" result="~7 ng/mL"

Where do the numbers come from? From patent US20190338026A1.
